System: P. berghei-luciferase sporozoites
Assay: microbe, parasite or virus in culture
Assay type: cell-based, Plasmodium berghei
Settings: Plasmodium berghei, HepG2, 48 h, read-out: Liver stage 48h EC50
parameter: EC50 (µM)
Give bare numbers, in µM.

Ask: Supply measured EC50 of Cc1cc2c(C(N)=O)cccc2n1-c1nc2c(c(NCc3ccccc3)n1)COCC2 in your reply.
Result: 0.54

###

Test system: HEK293T cells
Assay: Mammalian cell cytotoxicity assay, HEK293T (CellTiter-Glo, 72 h)
Details: read-out: HEK CC50; HEK293T cytotoxicity
parameter: CC50

Look over these answered cases.
Oc1ccc(CCN2CCC(Nc3nc4ccccc4n3Cc3ccc(F)cc3)CC2)cc1 :: 5920 nM
Cc1cc(-c2cc(OC(=O)c3ccccc3)ccc2Cl)cc2nnc(Nc3ccc(OCCN4CCCC4)cc3)nc12 :: > 9950 nM
C=C/C=C/C[C@@H](C)[C@@H](O)[C@H]1C(=O)N[C@@H](CC)C(=O)N(C)CC(=O)N(C)[C@@H](CC(C)C)C(=O)N[C@@H](C(C)C)C(=O)N(C)[C@@H](CC(C)C)C(=O)N[C@@H](C)C(=O)N[C@H](C)C(=O)N(C)[C@@H](CC(C)C)C(=O)N(C)[C@@H](CC(C)C)C(=O)N(C)[C@@H](C(C)C)C(=O)N1C :: > 9950 nM
CCc1ccc(OCc2ccccc2C(=O)Nc2ccc3nc(C)cc(N)c3c2)cc1 :: 1810 nM

For every item in the list below, what is its measured CC50?
1. COc1cc2c(Nc3ccc(NC(=O)c4ccccc4)cc3)ncnc2cc1OCCCN1CCOCC1
2. CN[C@@H]1C[C@H]2O[C@@](C)([C@@H]1OC)n1c3ccccc3c3c4c(c5c6ccccc6n2c5c31)C(=O)N[C@H]4O
3. CN(C)CCNc1nc2cc(O)ccc2c2c1C(=O)c1ccccc1-2

Result:
["> 9950 nM", "74 nM", "334 nM"]

###

System: HepG2 cells
Assay: Mammalian cell cytotoxicity assay, HepG2 (CellTiter-Glo, 72 h)
Details: read-out: HEP CC50; HepG2 cells
Structures can show the parent of a compound that is named as a salt.
Field: CC50. Provide a value for each of the compounds that follow.
Give bare numbers, in nM.

Use these answered entries as a reference point.
Cc1cc(-c2cc(O)ccc2Cl)cc2nnc(Nc3ccc(OCCN4CCCC4)cc3)nc12 [TG 100572 (Hydrochloride)] :: 3440
CCCCCCCCN=c1ccn(CCCCCCCC)cc1 [Pirtenidine] :: 1080
CCN(CC)CC(O)CNc1c2ccc(Cl)cc2nc2ccc(OC)cc12 (stereo not drawn) [Acranil] :: 1110

List CC50 for every entry below, keeping the order given.
1. CCC(CC)Nc1cc(C)nc(Oc2c(C)cc(C)cc2C)c1C [CP-376395]
2. CCCC1(CCC)CCC2(CCN(CCCN(CC)CC)C2)CC1 [Atiprimod dimaleate]

Result:
2500
2990

###

Assay: Mammalian cell cytotoxicity assay, HEK293T (CellTiter-Glo, 72 h)
Details: human, HEK293T cells
parameter: CC50 at 72 h
Kindly report the value followed by its unit.

A selection of reference data follows.
COc1cccc2c1C(=O)c1c(O)c3c(c(O)c1C2=O)C[C@@](O)(C(=O)CO)C[C@@H]3O[C@H]1C[C@H](N)[C@H](O)[C@H](C)O1 [Doxorubicin] :: 74 nM
CCNC(=O)c1noc(-c2cc(C(C)C)c(O)cc2O)c1-c1ccc(CN2CCOCC2)cc1 [Luminespib] :: 11 nM

For each of the items listed, what is its CC50 at 72 h?
1. C[C@]12O[C@H](C[C@]1(O)CO)n1c3ccccc3c3c4c(c5c6ccccc6n2c5c31)CNC4=O [Lestaurtinib]
2. CN(c1ccc(Cl)cc1)c1cc[n+](Cc2ccc(-c3ccc(C[n+]4ccc(N(C)c5ccc(Cl)cc5)c5ccccc54)cc3)cc2)c2ccccc12 [TCD-717]

Result:
["551 nM", "1930 nM"]
